Please provide measured pKd for the entries that follow.
Target: TcpK (Clostridium perfringens (plasmid pCW3)) (UniProt Q1PLI2)
Assay: SPR
Conditions: SPR: 10 mM HEPES pH 7.4, 200 mM NaCl, 3 mM EDTA, 0.05% Tween 20, 20 C
Give bare numbers, as −log10 of the molar value.

SEQ_STRING	SYSTEM	ASSAY_VALUE
AAGGAACTTTACAGGGAACTTTA (double strand) [oriTmin23 (SPR)]	TcpK (Clostridium perfringens (plasmid pCW3)) (UniProt Q1PLI2)	6.44
ACAGGGAACTTTAAAAATTTAAATTGATAT (double strand) [oriT#2 (SPR)]	TcpK (Clostridium perfringens (plasmid pCW3)) (UniProt Q1PLI2)	5.59

State the recorded pKd for this entry: AAGGAACTTTACAGGGAACTTTAAAAATTT (double strand) [oriT#1 (SPR)]
6.28

---

Please provide measured binding signal for the entries that follow.
Target: TcpK (Clostridium perfringens (plasmid pCW3)) (UniProt Q1PLI2)
Assay: SPR
Settings: SPR: 10 mM HEPES pH 7.4, 200 mM NaCl, 3 mM EDTA, 0.05% Tween 20, 20 C
Give bare numbers, in % Rmax.

SEQ_STRING	SYSTEM	QUANTITY_NAME	ASSAY_VALUE
AAGGAACTTTACAAGGAACTTTA (double strand) [linker CAA]	TcpK (Clostridium perfringens (plasmid pCW3)) (UniProt Q1PLI2)	binding signal	25
AAGGAACTTTACAGGGAACTTTAAAAATTTAAATTGATA (double strand) [R2L1]	TcpK (Clostridium perfringens (plasmid pCW3)) (UniProt Q1PLI2)	binding signal	100
AAGGAACTTTACAGGGAACTT (double strand) [R2L10]	TcpK (Clostridium perfringens (plasmid pCW3)) (UniProt Q1PLI2)	binding signal	55

# context switch: different sequence, same binding signal
State the recorded binding signal for this entry: AAGGAACTTTACAGGGAACTTTA (double strand) [R2L9]
100

src = paper PMC6137059
